test system: CAL-120; test: normalised response (% of control), CellTiter-Glo; higher = more viable cells (100 = DMSO, 0 = benzethonium chloride kill control); conditions: incubation time: 72 h
Let's look at some compounds and their measured normalised response.
All answers are understood in %, so give the number only.

As a guide, the following entries are already answered.
COMPOUND	UNIT OF MEASUREMENT	normalised response
CO[C@H]1C[C@@H]2CC[C@@H](C)[C@@](O)(O2)C(=O)C(=O)N2CCCC[C@H]2C(=O)O[C@H]([C@H](C)C[C@@H]2CC[C@@H](O)[C@H](OC)C2)CC(=O)[C@H](C)/C=C(\C)[C@@H](O)[C@@H](OC)C(=O)[C@H](C)C[C@H](C)/C=C/C=C/C=C/1C [Sirolimus] (100 nM)	%	64.5
COc1cc(Nc2ncc(F)c(Nc3ccc4c(n3)N(COP(=O)(O)O)C(=O)C(C)(C)O4)n2)cc(OC)c1OC [Fostamatinib] (2500 nM)	%	43.7

Please examine the following record next.
Q: Please tell me: normalised response of CC[C@@H]1C(=O)N(C)c2cnc(Nc3ccc(C(=O)N[C@H]4CC[C@H](N5CCN(CC6CC6)CC5)CC4)cc3OC)nc2N1C(C)C [Volasertib] (1000 nM) , system CAL-120?
A: 49.1

====

Let's look at some compounds and their measured normalised viability.
test system: SK-BR-3; assay: normalised viability (% of control), CellTiter-Blue; higher = more viable cells (about 100 = DMSO control); conditions: 100 nM; incubation time: 72 h
All answers are understood in %, so give the number only.

As a guide, the following entries are already answered.
> print(dat)
                                   compound  assayed.system        property.label  recorded.measurement
1  Cc1c(C(=O)Nc2ccc(N3C[C@@H](C)O[C@@H](C)C3)nc2)cccc1-c1ccc(OC(F)(F)F)cc1 [NVP-LDE225]         SK-BR-3  normalised viability                  71.1
2  NC(=O)c1cccc2cn(-c3ccc([C@@H]4CCCNC4)cc3)nc12 [MK-4827]         SK-BR-3  normalised viability                    78
3  C[C@]12C=CC(=O)C=C1CC[C@@H]1[C@@H]2C(=O)C[C@@]2(C)[C@H]1CC[C@]2(O)C(=O)CO [Prednisone]         SK-BR-3  normalised viability                    77

Please examine the following record next.
Q: Please tell me: normalised viability of Cn1nnc2c(C(N)=O)ncn2c1=O [Temozolomide] , system SK-BR-3?
A: 96.2

====

system: CAL-148; test: normalised viability (% of control), CellTiter-Blue; higher = more viable cells (about 100 = DMSO control); settings: incubation time: 72 h
Let's look at some molecules and their measured normalised viability.

As a guide, the following entries are already answered.
MOLECULE	normalised viability
CO[C@H]1C[C@@H]2CC[C@@H](C)[C@@](O)(O2)C(=O)C(=O)N2CCCC[C@H]2C(=O)O[C@H]([C@H](C)C[C@@H]2CC[C@@H](O)[C@H](OC)C2)CC(=O)[C@H](C)/C=C(\C)[C@@H](O)[C@@H](OC)C(=O)[C@H](C)C[C@H](C)/C=C/C=C/C=C/1C [Sirolimus] (100 nM)	48.1%
CC[C@@H]1C(=O)N(C)c2cnc(Nc3ccc(C(=O)N[C@H]4CC[C@H](N5CCN(CC6CC6)CC5)CC4)cc3OC)nc2N1C(C)C [Volasertib] (100 nM)	23.4%
C[C@]12C=CC(=O)C=C1CC[C@@H]1[C@@H]2C(=O)C[C@@]2(C)[C@H]1CC[C@]2(O)C(=O)CO [Prednisone] (1000 nM)	101%

Q: Please tell me: normalised viability of N[C@@H](Cc1ccc(N(CCCl)CCCl)cc1)C(=O)O [Melphalan] (99 nM) , system CAL-148?
A: 106%

Q: Note, next up: O=C(c1cc(Cc2n[nH]c(=O)c3ccccc23)ccc1F)N1CCN(C(=O)C2CC2)CC1 [Olaparib] (1000 nM)
A: 84.3%

====

tested on: MDA-MB-468; assay: normalised response (% of control), CellTox Green; higher = less cell death (100 = DMSO, 0 = benzethonium chloride kill control); conditions: incubation time: 72 h
Let's look at some compounds and their measured normalised response.
All answers are understood in %, so give the number only.

COMPOUND	ASSAYED SYSTEM	normalised response, %
COc1cc2c(cc1-c1c(C)noc1C)ncc1[nH]c(=O)n([C@H](C)c3ccccn3)c12 [I-BET151] (1000 nM)	MDA-MB-468	117
CC(C)C(=O)Nc1ccc([N+](=O)[O-])c(C(F)(F)F)c1 [Flutamide] (1000 nM)	MDA-MB-468	144
CN1CCN(c2nc(C3=C(c4c[nH]c5ccccc45)C(=O)NC3=O)c3ccccc3n2)CC1 [Sotrastaurin] (1000 nM)	MDA-MB-468	215
C[C@@H]1C[C@H]2[C@@H]3CCC4=CC(=O)C=C[C@]4(C)[C@@]3(F)[C@@H](O)C[C@]2(C)[C@@]1(O)C(=O)CO [Dexamethasone] (100 nM)	MDA-MB-468	97.2
COc1cc(Nc2ncc(F)c(Nc3ccc4c(n3)N(COP(=O)(O)O)C(=O)C(C)(C)O4)n2)cc(OC)c1OC [Fostamatinib] (2500 nM)	MDA-MB-468	37.4

Q: Using the record for Cc1c(C(=O)Nc2ccc(N3C[C@@H](C)O[C@@H](C)C3)nc2)cccc1-c1ccc(OC(F)(F)F)cc1 [Erismodegib] (1000 nM) , report its normalised response.
A: 111

Q: Note, next up: CO[C@H](C(=O)[C@@H](O)[C@@H](C)O)[C@@H]1Cc2cc3cc(O[C@H]4C[C@@H](O[C@@H]5C[C@@H](O)[C@H](O)[C@@H](C)O5)[C@H](O)[C@@H](C)O4)c(C)c(O)c3c(O)c2C(=O)[C@H]1O[C@H]1C[C@@H](O[C@@H]2C[C@@H](O)[C@@H](O[C@@H]3C[C@](C)(O)[C@H](O)[C@@H](C)O3)[C@@H](C)O2)[C@H](O)[C@@H](C)O1 [Plicamycin] (100 nM)
A: 131

Q: Note, next up: COc1cc2c(Oc3ccc(NC(=O)C4(C(=O)Nc5ccc(F)cc5)CC4)cc3F)ccnc2cc1OCCCN1CCOCC1 [Foretinib] (1000 nM)
A: 37.6

Q: Note, next up: CO[C@H]1C[C@@H]2CC[C@@H](C)[C@@](O)(O2)C(=O)C(=O)N2CCCC[C@H]2C(=O)O[C@H]([C@H](C)C[C@@H]2CC[C@@H](O)[C@H](OC)C2)CC(=O)[C@H](C)/C=C(\C)[C@@H](O)[C@@H](OC)C(=O)[C@H](C)C[C@H](C)/C=C/C=C/C=C/1C [Sirolimus] (1 nM)
A: 119

Q: Note, next up: CC(C)NC[C@@H](C(=O)N1CCN(c2ncnc3c2[C@H](C)C[C@H]3O)CC1)c1ccc(Cl)cc1 [GDC-0068] (100 nM)
A: 125

====

system: MDA-MB-436; assay: normalised response (% of control), CellTox Green; higher = less cell death (100 = DMSO, 0 = benzethonium chloride kill control); settings: incubation time: 72 h
Let's look at some compounds and their measured normalised response.
All answers are understood in %, so give the number only.

As a guide, the following entries are already answered.
COMPOUND	ASSAYED SYSTEM	normalised response (%)
CO[C@H]1C[C@@H]2CC[C@@H](C)[C@@](O)(O2)C(=O)C(=O)N2CCCC[C@H]2C(=O)O[C@H]([C@H](C)C[C@@H]2CC[C@@H](O)[C@H](OC)C2)CC(=O)[C@H](C)/C=C(\C)[C@@H](O)[C@@H](OC)C(=O)[C@H](C)C[C@H](C)/C=C/C=C/C=C/1C [Sirolimus] (100 nM)	MDA-MB-436	94.5
CCCCCOC(=O)Nc1nc(=O)n([C@@H]2O[C@H](C)[C@@H](O)[C@H]2O)cc1F [Capecitabine] (1000 nM)	MDA-MB-436	100
Cn1cc(C[C@@H](N)C(=O)O)c2ccccc21 [1-methyl-D-tryptophan] (50 nM)	MDA-MB-436	73.2
C[C@@H](C(=O)O)c1ccc(-c2ccccc2)c(F)c1 [Tarenflurbil] (1000 nM)	MDA-MB-436	60.6
CC/C(=C(\c1ccccc1)c1ccc(OCCN(C)C)cc1)c1ccccc1 [Tamoxifen] (1000 nM)	MDA-MB-436	108

Please examine the following record next.
Q: Please tell me: normalised response of NC1(c2ccc(-c3nc4ccn5c(=O)[nH]nc5c4cc3-c3ccccc3)cc2)CCC1 [MK-2206] (10 nM) , system MDA-MB-436?
A: 95.6
